Data credit: patent US20060045953A1

# experimentalTarget: hT1R1/hT1R3 umami receptor (Homo sapiens, UniProt Q7RTX0+Q7RTX1)
# Construct: expressed in transfected cells; host or cells: HEK293 derivative stably expressing Gα15, clone I-17, expression induced with mifepristone
# Sequence (Q7RTX1 21-841, one chain of several): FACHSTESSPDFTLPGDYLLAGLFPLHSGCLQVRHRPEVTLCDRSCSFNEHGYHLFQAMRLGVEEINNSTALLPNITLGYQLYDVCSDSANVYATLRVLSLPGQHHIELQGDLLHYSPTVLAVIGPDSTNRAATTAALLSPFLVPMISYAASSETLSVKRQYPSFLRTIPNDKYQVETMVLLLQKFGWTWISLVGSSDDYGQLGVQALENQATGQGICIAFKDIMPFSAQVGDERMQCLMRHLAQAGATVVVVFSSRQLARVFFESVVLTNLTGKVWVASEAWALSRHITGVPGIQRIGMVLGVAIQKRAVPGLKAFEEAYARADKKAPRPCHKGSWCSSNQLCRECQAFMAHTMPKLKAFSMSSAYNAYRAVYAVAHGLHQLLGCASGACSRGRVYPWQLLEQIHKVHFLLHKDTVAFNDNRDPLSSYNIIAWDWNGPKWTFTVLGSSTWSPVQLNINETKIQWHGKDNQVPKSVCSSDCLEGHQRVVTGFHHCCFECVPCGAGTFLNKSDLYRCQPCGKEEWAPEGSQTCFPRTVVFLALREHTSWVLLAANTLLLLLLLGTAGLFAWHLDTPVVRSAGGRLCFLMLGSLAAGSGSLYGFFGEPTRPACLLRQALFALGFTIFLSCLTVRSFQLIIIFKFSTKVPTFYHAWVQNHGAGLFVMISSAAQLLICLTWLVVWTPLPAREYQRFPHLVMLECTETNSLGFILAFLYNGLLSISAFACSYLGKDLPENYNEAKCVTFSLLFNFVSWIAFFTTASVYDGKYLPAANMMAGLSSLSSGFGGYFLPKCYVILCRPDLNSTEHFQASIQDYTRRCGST
# method: In vitro hT1R1/hT1R3 umami taste receptor activation assay (FLIPR, dose response)
# Type: cell-based
# testSettings: read-out: EC50 for activation of a hT1R1/hT1R3 umami receptor expressed in an HEK293 cell line
observedProperty: EC50
Remember to put the unit after the number in your answer.

Respond only with EC50 recorded for COc1ccc(CNC(=O)C(=O)NCCc2ccccn2)c(C)c1 [Example 126]
110 nM

Respond only with EC50 recorded for CCCC(CCC)NC(=O)c1ccc(OC)cc1C#N [Example 97]
1390 nM

Respond only with EC50 recorded for O=C(NCCc1ccccn1)C(=O)NCc1nc2ccccc2s1 [Example 151]
4400 nM

Respond only with EC50 recorded for CC(C)C[C@H](CO)NC(=O)c1ccc2c(c1)OCO2 [Example 8]
9000 nM

Respond only with EC50 recorded for CC(C)/C=C/C(=O)NC1CCCc2ccccc21 (centres unmarked) [Example 84]
1500 nM

Respond only with EC50 recorded for O=C(NCCc1ccccn1)C(=O)NCc1ccc2occc2c1 [Example 140]
1780 nM

Respond only with EC50 recorded for COC[C@@H](CC(C)C)NC(=O)/C=C/c1ccc(OC)cc1 [Example 80]
900 nM

Respond only with EC50 recorded for COc1ccc(CNC(=O)c2ccnn2C)c(OC)c1 [Example 110]
6000 nM

***
Respond only with EC50 recorded for COC(=O)[C@@H](CC(C)C)NC(=O)c1cc2cc(C)ccc2[nH]1 [Example 36]
6600 nM

Respond only with EC50 recorded for O=C(NCc1ccc(OC(F)(F)F)cc1)c1ccsc1 [Example 107]
2200 nM

* * *

# experimentalTarget: hT1R1/hT1R3 umami receptor (Homo sapiens, UniProt Q7RTX0+Q7RTX1)
# Construct: expressed in transfected cells; host or cells: HEK293 derivative stably expressing Gα15, clone I-17, expression induced with mifepristone
# method: In vitro hT1R1/hT1R3 umami taste receptor activation assay (FLIPR, dose response)
# Assay type: cell-based
# testSettings: Table A, Umami Amides; read-out: Umami EC50
Listed molecules paired with reported pEC50
Give only the number. pEC50 is defined as minus log10 of concentration in molar units.

Respond only with pEC50 recorded for Cc1cc(C(=O)NC2CCCc3ccccc32)ccc1O (stereo not shown)
5.88

Respond only with pEC50 recorded for CCCC(CCC)NC(=O)c1ccc2cc[nH]c2c1 [Example A35, N-(heptan-4-yl)-1H-indole-6-carboxamide]
6.09

Respond only with pEC50 recorded for CCCCC(NC(=O)c1ccc2c(c1)OCO2)C(=O)OC (stereo not shown)
6.31

Respond only with pEC50 recorded for COC(=O)[C@@H](CC(C)C)NC(=O)c1ccc2occc2c1
6.15

Respond only with pEC50 recorded for CCSc1ccc(C(=O)N[C@H](CC(C)C)C(=O)OC)cc1
6.70

Respond only with pEC50 recorded for COc1ccc(C(=O)NC(CO)CC(C)C)cc1Cl (stereo not shown)
6.06

Respond only with pEC50 recorded for CCCC(CC(C)C)NC(=O)c1ccc2oc(C)nc2c1 (stereo not shown)
6.42

Respond only with pEC50 recorded for CCOc1ccc(C(=O)NC(CC)CC)cc1C
6.59

Respond only with pEC50 recorded for COC(=O)C(CC(C)C)NC(=O)c1cc2ccccc2s1 (stereo in doubt)
6.40

Respond only with pEC50 recorded for CCCC(CCC)NC(=O)c1cccc(SC)c1 [Example A118, N-(heptan-4-yl)-3-(methylthio)benzamide]
7.52

***
Respond only with pEC50 recorded for COc1cccc(C(=O)N[C@@H]2CCCc3ccccc32)c1N
7.05

Respond only with pEC50 recorded for CCCOc1ccc(C(=O)N[C@H](CC(C)C)C(=O)OC)cc1
6.29

Respond only with pEC50 recorded for CCC(CC)NC(=O)c1cc2ccccc2o1 [Example A21, N-(pentan-3-yl)benzofuran-2-carboxamide]
5.82

* * *

# experimentalTarget: hT1R2/hT1R3 sweet receptor (Homo sapiens, UniProt Q7RTX0+Q8TE23)
# Construct: expressed in transfected cells; host or cells: HEK293 derivative stably expressing Gα15, clone S-9
# method: In vitro hT1R2/hT1R3 sweet taste receptor activation assay (FLIPR, dose response)
# Format: cell-based
# testSettings: Table E, Sweet Enhancer Amides; read-out: Sweet EC50
observedProperty: EC50 (nM)
Give the value, in units of nM, as a plain number.

Some compounds with recorded EC50:
Give EC50; test system hT1R2/hT1R3 sweet receptor (Homo sapiens, UniProt Q7RTX0+Q8TE23); compound COc1cccc2c1CCCC2NC(=O)c1cccc(-c2ccccc2)c1O (stereo not shown) [Example E123]
2560

Give EC50; test system hT1R2/hT1R3 sweet receptor (Homo sapiens, UniProt Q7RTX0+Q8TE23); compound Cc1ccc(NC(=O)N2CCc3ccccc3C2)cc1 [Example E111]
4270

Give EC50; test system hT1R2/hT1R3 sweet receptor (Homo sapiens, UniProt Q7RTX0+Q8TE23); compound CCC(COC)NC(=O)c1ccc(C)cc1C (stereo not shown) [Example E42]
1060

***
Give EC50; test system hT1R2/hT1R3 sweet receptor (Homo sapiens, UniProt Q7RTX0+Q8TE23); compound CC1CCCC(NC(=O)c2cncc(Br)c2)C1C (stereo not shown) [Example E55]
1890

Give EC50; test system hT1R2/hT1R3 sweet receptor (Homo sapiens, UniProt Q7RTX0+Q8TE23); compound CC1CCCCC1NC(=O)c1ccc(Cl)c(Cl)c1 (stereo not shown) [Example E54]
1830

Give EC50; test system hT1R2/hT1R3 sweet receptor (Homo sapiens, UniProt Q7RTX0+Q8TE23); compound Cc1cc(C)cc(C(=O)NC2CCCCC2C)c1 (stereo not shown) [Example E82]
4480

Give EC50; test system hT1R2/hT1R3 sweet receptor (Homo sapiens, UniProt Q7RTX0+Q8TE23); compound COc1cccc(C(=O)NC2CCC(C)CC2)c1O (stereo not shown) [Example E72]
3350

Give EC50; test system hT1R2/hT1R3 sweet receptor (Homo sapiens, UniProt Q7RTX0+Q8TE23); compound COc1cccc2c1CCCC2NC(=O)c1cccc(O)c1O (stereo not shown) [Example E10]
2440

Give EC50; test system hT1R2/hT1R3 sweet receptor (Homo sapiens, UniProt Q7RTX0+Q8TE23); compound Cc1ccc(C(=O)NC2CCC(C)CC2)c(O)c1 (stereo not shown) [Example E67]
2980

Give EC50; test system hT1R2/hT1R3 sweet receptor (Homo sapiens, UniProt Q7RTX0+Q8TE23); compound Cc1cc([N+](=O)[O-])ccc1NC(=O)N1Cc2ccccc2C1 [Example E100]
1300

* * *

# experimentalTarget: hT1R2/hT1R3 sweet receptor (Homo sapiens, UniProt Q7RTX0+Q8TE23)
# Construct: expressed in transfected cells; host or cells: HEK293 derivative stably expressing Gα15, clone S-9
# method: In vitro hT1R2/hT1R3 sweet taste receptor activation assay (FLIPR, dose response)
# Assay type: cell-based
# testSettings: read-out: EC50 for activation of a hT1R2/hT1R3 sweet receptor expressed in an HEK293 cell line
observedProperty: pEC50
Give only the number. pEC50 is defined as minus log10 of concentration in molar units.

Respond only with pEC50 recorded for Cc1cc(Cl)ccc1NC(=O)N1Cc2ccccc2C1 [Example 172]
6.05

Respond only with pEC50 recorded for O=C(Nc1ccc2c(c1)OCO2)N1Cc2ccccc2C1 [Example 174]
5.98

Respond only with pEC50 recorded for O=C(N[C@@H]1CCCc2c(O)cccc21)c1cccc(Cl)c1O (stereo in doubt) [Example 180]
5.93

Respond only with pEC50 recorded for Cc1cc(C)c2c(c1)C(NC(=O)c1conc1C)CCC2 (centres unmarked) [Example 166]
6.12

***
Respond only with pEC50 recorded for Cc1ccc2c(c1)C(NC(=O)c1cccc(Cl)c1O)CCC2 (centres unmarked) [Example 178]
5.83

Respond only with pEC50 recorded for CSc1cc(C)c(C(=O)N[C@H](C)C(C)(C)C)c(C)c1 [Example 200]
5.99

Respond only with pEC50 recorded for COc1cccc2c1CCC[C@H]2NC(=O)c1conc1C [Example 190]
6.02

Respond only with pEC50 recorded for O=C(N[C@@H]1CCOc2ccccc21)c1cccc(Cl)c1O [Example 185]
5.99

Respond only with pEC50 recorded for CCCOc1cc(C)c(C(=O)NC2CCCCC2C)c(C)c1 (centres unmarked) [Example 201]
6.16

Respond only with pEC50 recorded for Cc1cccc2c1CN(C(=O)Nc1ccc3c(c1)OCO3)C2 [Example 199]
6.02

Respond only with pEC50 recorded for COc1ccc2c(c1)CCC[C@H]2NC(=O)c1cccc(Cl)c1O [Example 183]
6.07

* * *

# experimentalTarget: hT1R2/hT1R3 sweet receptor (Homo sapiens, UniProt Q7RTX0+Q8TE23)
# Construct: expressed in transfected cells; host or cells: HEK293 derivative stably expressing Gα15, clone S-9
# Sequence (Q8TE23 20-839): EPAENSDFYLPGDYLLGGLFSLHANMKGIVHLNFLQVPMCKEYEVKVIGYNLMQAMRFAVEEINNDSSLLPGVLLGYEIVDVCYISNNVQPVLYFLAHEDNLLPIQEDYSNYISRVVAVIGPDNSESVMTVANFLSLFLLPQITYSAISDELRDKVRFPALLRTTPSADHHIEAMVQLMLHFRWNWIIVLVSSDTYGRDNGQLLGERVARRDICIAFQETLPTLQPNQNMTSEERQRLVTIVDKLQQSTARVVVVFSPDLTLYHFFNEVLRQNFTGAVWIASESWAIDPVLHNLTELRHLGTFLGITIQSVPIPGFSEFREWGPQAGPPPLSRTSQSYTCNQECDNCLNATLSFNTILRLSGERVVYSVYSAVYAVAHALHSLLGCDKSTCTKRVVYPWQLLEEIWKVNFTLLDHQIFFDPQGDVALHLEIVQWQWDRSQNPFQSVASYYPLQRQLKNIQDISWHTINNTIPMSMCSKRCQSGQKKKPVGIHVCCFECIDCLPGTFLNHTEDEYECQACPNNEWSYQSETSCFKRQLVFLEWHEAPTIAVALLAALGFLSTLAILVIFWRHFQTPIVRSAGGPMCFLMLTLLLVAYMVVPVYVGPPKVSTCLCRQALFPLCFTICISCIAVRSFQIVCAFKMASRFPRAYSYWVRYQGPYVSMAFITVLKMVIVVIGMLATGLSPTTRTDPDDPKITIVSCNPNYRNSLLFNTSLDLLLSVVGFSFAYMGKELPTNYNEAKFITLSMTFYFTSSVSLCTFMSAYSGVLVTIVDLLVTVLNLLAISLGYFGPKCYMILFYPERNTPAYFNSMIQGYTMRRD
# Sequence (Q7RTX0 21-852): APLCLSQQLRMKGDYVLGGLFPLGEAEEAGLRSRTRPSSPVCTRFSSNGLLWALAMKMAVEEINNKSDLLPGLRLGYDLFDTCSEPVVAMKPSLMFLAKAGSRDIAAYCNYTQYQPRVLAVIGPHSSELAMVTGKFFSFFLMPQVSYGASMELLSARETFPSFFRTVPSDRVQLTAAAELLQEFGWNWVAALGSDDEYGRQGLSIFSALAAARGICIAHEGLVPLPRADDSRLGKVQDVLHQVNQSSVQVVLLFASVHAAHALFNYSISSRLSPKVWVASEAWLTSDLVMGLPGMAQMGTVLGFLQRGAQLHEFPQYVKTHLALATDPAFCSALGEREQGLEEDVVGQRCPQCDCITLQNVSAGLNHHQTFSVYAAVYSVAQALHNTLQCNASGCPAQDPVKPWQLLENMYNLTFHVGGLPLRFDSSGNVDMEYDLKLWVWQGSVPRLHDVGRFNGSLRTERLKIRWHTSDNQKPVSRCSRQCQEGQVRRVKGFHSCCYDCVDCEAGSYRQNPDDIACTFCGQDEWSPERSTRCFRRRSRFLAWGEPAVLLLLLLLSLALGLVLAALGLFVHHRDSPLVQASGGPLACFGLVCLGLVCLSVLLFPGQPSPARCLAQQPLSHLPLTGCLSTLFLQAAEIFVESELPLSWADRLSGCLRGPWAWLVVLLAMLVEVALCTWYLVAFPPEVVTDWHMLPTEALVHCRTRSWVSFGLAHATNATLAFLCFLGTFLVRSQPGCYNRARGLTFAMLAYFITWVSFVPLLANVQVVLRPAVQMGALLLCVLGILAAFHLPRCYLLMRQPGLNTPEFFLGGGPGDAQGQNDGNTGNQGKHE
# method: In vitro hT1R2/hT1R3 sweet taste receptor activation assay (FLIPR, dose response)
# Type: cell-based
# testSettings: Table E, Sweet Enhancer Amides; read-out: Sweet EC50
observedProperty: log10(EC50) (log10 of the value in µM)
A difference of one corresponds to tenfold EC50; all values are log10 with EC50 in µM.

Some compounds with recorded log10(EC50):
Respond only with log10(EC50) recorded for Cc1c(F)cccc1C(=O)N[C@H]1CCCc2ccccc21
0.55

Respond only with log10(EC50) recorded for CC1CCCCC1NC(=O)c1ccnc(Cl)c1 (centres unmarked)
0.28

Respond only with log10(EC50) recorded for COc1c(Cl)cc(C(=O)Nc2ccccc2C)cc1Cl
0.26

Respond only with log10(EC50) recorded for CC1CCCCC1NC(=O)c1ccc(F)c(F)c1 (centres unmarked)
0.64

Respond only with log10(EC50) recorded for CC1CCCCC1NC(=O)c1cccc(OC(F)(F)F)c1 (centres unmarked)
-0.38

Respond only with log10(EC50) recorded for O=C(Nc1nnc(C(F)(F)F)s1)c1ccc(F)c(Cl)c1
0.19

Respond only with log10(EC50) recorded for CC1CCCC(NC(=O)c2c(Cl)cccc2Cl)C1C (centres unmarked)
0.44

Respond only with log10(EC50) recorded for O=C(Nc1ccc(Cl)cc1Cl)N1Cc2ccccc2C1
0.62

***
Respond only with log10(EC50) recorded for CCC(CC)NC(=O)c1cccc(Cl)c1Cl [Example E75, 2,3-dichloro-N-(pentan-3-yl)benzamide]
0.58

Respond only with log10(EC50) recorded for O=C(N[C@@H]1CCCc2ccccc21)c1cncc(Br)c1
0.62

Respond only with log10(EC50) recorded for O=C(N[C@@H]1CCCc2ccccc21)c1cccc(Cl)c1O [Example E2]
-0.19
